Values were extracted from paper PMC5540273.

# Test system: CDK3;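 also: KINOMEscan kinase panel screen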
# Condition: concentration: 1 μM, replicates: in singlicate; n = 1
Consider the following compounds and their measured %Inh readings.
Experimental Readout: %Inh (%)

| Compound | Experimental Readout | Value Units | Endpoint Result |
| --- | --- | --- | --- |
| CC(=O)c1c(C)c2cnc(Nc3ccn(C)n3)nc2n(C2CCCC2)c1=O | %Inh | % | 0 |
| COC(=O)c1cccc(NC(=O)NC2CCN(c3ccnc(Nc4ccc(F)cc4)n3)C2)c1 (stereo not shown) | %Inh | % | 4 |
| COC(=O)c1cccc(NC(=O)NC2CCN(c3ccnc(Nc4ccc(OC)cc4)n3)C2)c1 (stereo not shown) | %Inh | % | 9 |
| CNc1nc(-c2ccc3c(N)n[nH]c3c2)cc(N2C[C@@H](C(=O)NC3CCCCC3)OC[C@H]2C)n1 | %Inh | % | 0 |
| CS(=O)(=O)CCNCc1nc(-c2ccc3ncnc(Nc4ccc5c(cnn5Cc5ccccc5)c4)c3c2)cs1.Cl.Cl | %Inh | % | 1 |
| Fc1ccc(-c2nc[nH]c2-c2ccncc2)cc1 | %Inh | % | 0 |
| Cc1c(Cn2c(C)c(C)n3c(=O)cc(N4CCOCC4)nc23)cccc1C(F)(F)F | %Inh | % | 7 |
